The reported measurements were obtained from ChEMBL document CHEMBL3046507.

Field: inhibition at 750 g/ha. Provide a value for each of the compounds that follow.
System: Amaranthus retroflexus
Experiment: Herbicidal activity against Amaranthus retroflexus assessed as inhibition of fresh plant weight at 750 g/ha using preemergence protocol measured after 24 days under green house conditions
Settings: pre-emergence
One number for each entry, in %.

Compound	System tested	Quantity kind	Quantitative result
Cc1cc(-c2cccc(C(F)(F)F)c2)c(NCc2ccccc2F)nn1	Amaranthus retroflexus	inhibition at 750 g/ha	8
Cc1cc(-c2cccc(C(F)(F)F)c2)c(Nc2cccc(Cl)c2)nn1	Amaranthus retroflexus	inhibition at 750 g/ha	12
Cc1cc(-c2cccc(C(F)(F)F)c2)c(NC(C)c2ccccc2)nn1 (centres undefined)	Amaranthus retroflexus	inhibition at 750 g/ha	10
Cc1ccc(Nc2nnc(C)cc2-c2cccc(C(F)(F)F)c2)c(C)c1	Amaranthus retroflexus	inhibition at 750 g/ha	0

List reported inhibition at 750 g/ha for each of these compounds:
1. Cc1cc(-c2cccc(C(F)(F)F)c2)c(NC(C)c2ccc(F)cc2)nn1 (centres undefined)
2. Cc1cc(-c2cccc(C(F)(F)F)c2)c(NCc2ccccc2Cl)nn1
3. COc1ccc(Nc2nnc(C)cc2-c2cccc(C(F)(F)F)c2)cc1
4. Cc1cc(-c2cccc(C(F)(F)F)c2)c(Nc2ccccc2C)nn1
5. O=C(Nc1ccc(F)cc1F)c1cccnc1Oc1cccc(C(F)(F)F)c1

Result:
[1, 36, 55, 0, 90]

###

Tested on: Brassica rapa subsp. oleifera
Experiment: Herbicidal activity against Brassica rapa subsp. oleifera assessed as inhibition of fresh plant weight at 75 g/ha using postemergence protocol measured after 24 days under green house conditions
Conditions: post-emergence
Field: inhibition at 75 g/ha. Provide a value for each of the compounds that follow.
Answers are plain numbers, in %.

Cc1cc(-c2cccc(C(F)(F)F)c2)c(Nc2ccccc2F)nn1 60
Cc1cc(-c2cccc(C(F)(F)F)c2)c(Nc2ccccc2)nn1 66
Cc1cc(-c2cccc(C(F)(F)F)c2)c(Nc2ccc(F)cc2)nn1 55

Documented inhibition at 75 g/ha of Cc1cc(-c2cccc(C(F)(F)F)c2)c(Nc2ccc(Cl)cc2)nn1 : 52

###

Test system: Echinochloa crus-galli
Experiment: Herbicidal activity against Echinochloa crus-galli (barnyard grass) assessed as inhibition of fresh plant weight at 750 g/ha using preemergence protocol measured after 24 days under green house conditions
Settings: pre-emergence
Field: inhibition at 750 g/ha. Provide a value for each of the molecules that follow.
Give bare numbers, in %.

Molecule	System tested	Units text	inhibition at 750 g/ha
Cc1cc(-c2cccc(C(F)(F)F)c2)c(Nc2ccccc2C)nn1	Echinochloa crus-galli	%	0
O=C(Nc1ccc(F)cc1F)c1cccnc1Oc1cccc(C(F)(F)F)c1	Echinochloa crus-galli	%	94
Cc1cc(-c2cccc(C(F)(F)F)c2)c(Nc2ccccc2Cl)nn1	Echinochloa crus-galli	%	2

Next:
Documented inhibition at 750 g/ha of Cc1cc(-c2cccc(C(F)(F)F)c2)c(NC(C)c2ccc(F)cc2)nn1 (centres undefined) : 14
